- procedure.details: SGF assay (stability in simulated gastric fluid)
- Format: in vitro ADME
- condition.label: pig, simulated gastric fluid (SGF) with porcine pepsin, pH 2, pepsin, 37° C.
Square brackets hold non-standard residues; d marks the D form. Peptide text beside a SMILES is read from it. Dmt = Cc1cc(O)cc(C)c1C[C@H](N)C(=O)O; β3hF = N[C@H](CC(=O)O)Cc1ccccc1; Sar = CNCC(=O)O
Kindly supply the reported half-life at 20 μM values for the records listed here.

Form field: reported half-life at 20 μM of Cc1cc(C(N)=O)cc(C)c1C[C@H](N)C(=O)N[C@H](C)C(=O)NCC(=O)N[C@H](CC(=O)N(C)[C@@H](CC(C)C)C(=O)O)Cc1ccccc1 [compound 92] > 24 h

Form field: reported half-life at 20 μM of CCCC[C@@H](C(=O)O)N(C)C(=O)C[C@H](Cc1ccccc1)NC(=O)CNC(=O)[C@@H](C)NC(=O)[C@@H](N)Cc1c(C)cc(O)cc1C [compound 159] > 24 h

Form field: reported half-life at 20 μM of Cc1cc(O)cc(C)c1C[C@H](N)C(=O)N[C@H](C)C(=O)N[C@@H](C)C(=O)N[C@H](CC(=O)N(C)CC(N)=O)Cc1ccccc1 [compound 66] (H-[Dmt][dA]A[β3hF][Sar]-NH2) 0.167 to 6 h

Reference for the values: patent US10278957B2
